compounds and their reported % Inhibition
Target desc: human dopamine D3 receptor (Homo sapiens)
Construct: host or cells: CHO
Sequence (P35462 whole entry): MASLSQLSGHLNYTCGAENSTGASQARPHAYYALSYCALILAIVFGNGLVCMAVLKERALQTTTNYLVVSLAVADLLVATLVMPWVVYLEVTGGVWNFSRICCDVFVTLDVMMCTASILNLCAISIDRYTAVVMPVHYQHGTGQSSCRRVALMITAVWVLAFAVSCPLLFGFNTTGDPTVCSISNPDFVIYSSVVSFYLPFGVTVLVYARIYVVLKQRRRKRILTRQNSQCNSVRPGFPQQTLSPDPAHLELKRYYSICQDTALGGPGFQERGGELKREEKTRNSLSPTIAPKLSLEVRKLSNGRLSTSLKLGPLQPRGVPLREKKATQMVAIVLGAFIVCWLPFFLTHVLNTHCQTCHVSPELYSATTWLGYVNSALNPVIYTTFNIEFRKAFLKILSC
Assay procedure: Human D3 Assay: binding of [3H]-Spiperone, CHO cell membranes
Stated conditions: Table 8; 100 μg/mL
Property name: % Inhibition (%)

- Compound: "C=C1CCC(C(C)C)=CC2C1CCC2(C)O (centres unmarked) [VM-022-034-F2, 6,10(14)-Guaiadien-4-ol]"
  Test result: 114
- Compound: "CC(=O)O[C@@H]1CC(C)=C2[C@H]1[C@H](C)CC[C@H]2/C=C(\\C)C(=O)O [KL-015-040-F1, Acetoxyvalerenic Acid]"
  Test result: 1
- Compound: "C=C1CCC2C(C3C1CCC3(C)O)C2(C)C (centres unmarked) [VM-022-034-F1, 10(14)-Aromadendren-4-ol]"
  Test result: 115
- Compound: "CC1=C2C(/C=C(\\C)CO)CCC(C)C2CC1 (centres unmarked) [VM-022-034-F4, Valerenol]"
  Test result: 119
- Compound: "CC1=C2[C@@H]([C@H](C)CC[C@H]2/C=C(\\C)C(=O)O)[C@H](O)C1 [KL-015-025-F2, Hydroxyvalerenic Acid]"
  Test result: 17

Origin of the recorded values: patent US6544565B2
